Molecular target: wild-type HCV genotype 1b NS5B protein (recombinant HCV polymerase) (Hepatitis C virus genotype 1b)
Construct: HCV genotype 1b NS5B protein were used to generate recombinant HCV polymerases (with a deletion of the 21 carboxy terminal amino acids)
Test: HCV Polymerase Enzyme Assay, wild-type
metric: IC50

Sample records with IC50:
CO[C@]1(COP(=O)(O)O)O[C@@H](n2ccc(=O)[nH]c2=O)[C@H](O)[C@@H]1O [Compound 18a] ... > 10 µM
CO[C@]1(COP(=O)(O)OP(=O)(O)OP(=O)(O)O)O[C@@H](n2ccc(=O)[nH]c2=O)[C@H](N)[C@@H]1O ... 1 to 10 µM
CO[C@]1(COP(=O)(O)OP(=O)(O)OP(=O)(O)O)O[C@@H](n2ccc(=O)[nH]c2=O)[C@H](O)[C@@H]1O ... 0.25 to 1 µM
CO[C@]1(COP(=O)(O)OP(=O)(O)OP(=O)(O)O)O[C@@H](n2ccc(N)nc2=O)[C@H](O)[C@@H]1F ... 0.25 to 1 µM
CO[C@]1(COP(=O)(O)OP(=O)(O)OP(=O)(O)O)O[C@@H](n2ccc(=O)[nH]c2=O)[C@H](O)[C@@H]1N ... > 10 µM

Which measured IC50 value corresponds to CO[C@]1(COP(=O)(O)OP(=O)(O)OP(=O)(O)O)O[C@@H](n2cnc3c(=O)[nH]c(N)nc32)[C@H](F)[C@@H]1O ? < 0.25 µM

Which measured IC50 value corresponds to CO[C@H]1[C@H](n2ccc(=O)[nH]c2=O)O[C@@](COP(=O)(O)OP(=O)(O)OP(=O)(O)O)(OC)[C@H]1O ? > 10 µM

From: patent US10683321B2
